test system: Proteus mirabilis ATCC 35659; assay type: cell-based; conditions: ATCC 35659
Numbered stars: 1 amine (or outer) side, 2 acyl side, 3 side chain; on linkers, the order of the positions; unused ones are H or OH. Square brackets hold non-standard residues; d marks the D form. Peptide text beside a SMILES is read from it. X1 = CC(C)[C@H](C)N(CC(=O)[*:2])[*:1]; Nspe = C[C@H](NCC(=O)O)c1ccccc1; Nphe = O=C(O)CNCc1ccccc1; Nlys = NCCCCNCC(=O)O
experimental_endpoint: MIC Proteus mirabilis ATCC 35659

[[record]]
molecule = "CC(C)[C@H](C)N(CC(=O)N(CC(=O)N(CCCCN)CC(=O)N(CC(=O)N(CC(=O)N(CCCCN)CC(=O)N(CC(=O)N(CC(=O)N(CCCCN)CC(=O)N(CC(=O)N(CC(N)=O)[C@@H](C)c1ccccc1)[C@@H](C)C(C)C)[C@@H](C)c1ccccc1)[C@@H](C)C(C)C)[C@@H](C)c1ccccc1)[C@@H](C)C(C)C)[C@@H](C)c1ccccc1)C(=O)CNCCCCN [1-Nsdp2,5,8,11, H-(Nlys-Nsdp-Nspe)4-NH2] (H-[Nlys][X1][Nspe][Nlys][X1][Nspe][Nlys][X1][Nspe][Nlys][X1][Nspe]-NH2)"
system_under_test = "Proteus mirabilis ATCC 35659"
result = ">76.0 µM"

[[record]]
molecule = "NCCCCNCC(=O)N(CC(=O)N(CC(=O)N(CCCCN)CC(=O)N(CC(=O)N(CC(=O)N(CCCCN)CC(=O)N(CC(=O)N(CC(=O)N(CCCCN)CC(=O)N(CC(=O)N(CC(N)=O)Cc1ccccc1)Cc1ccccc1)Cc1ccccc1)Cc1ccccc1)Cc1ccccc1)Cc1ccccc1)Cc1ccccc1)Cc1ccccc1 [1achiral, H-(Nlys-Npm-Npm)4-NH2] (H-[Nlys][Nphe][Nphe][Nlys][Nphe][Nphe][Nlys][Nphe][Nphe][Nlys][Nphe][Nphe]-NH2)"
system_under_test = "Proteus mirabilis ATCC 35659"
result = ">75 µM"

[[record]]
molecule = "C[C@@H](c1ccccc1)N(CC(N)=O)C(=O)CN(Cc1ccccc1)C(=O)CN(CCCCN)C(=O)CN(C(=O)CN(Cc1ccccc1)C(=O)CN(CCCCN)C(=O)CN(C(=O)CN(Cc1ccccc1)C(=O)CN(CCCCN)C(=O)CN(C(=O)CN(Cc1ccccc1)C(=O)CNCCCCN)[C@@H](C)c1ccccc1)[C@@H](C)c1ccccc1)[C@@H](C)c1ccccc1 [1-Npm2,5,8,11, H-(Nlys-Npm-Nspe)4-NH2] (H-[Nlys][Nphe][Nspe][Nlys][Nphe][Nspe][Nlys][Nphe][Nspe][Nlys][Nphe][Nspe]-NH2)"
system_under_test = "Proteus mirabilis ATCC 35659"
result = ">72.6 µM"


Record summary for C[C@@H](c1ccccc1)N(CC(N)=O)C(=O)CN(C(=O)CN(CCCCN)C(=O)[C@@H]1CCCN1C(=O)CN(C(=O)CN(CCCCN)C(=O)CN(C(=O)CN(C(=O)CN(CCCCN)C(=O)CN(C(=O)CN(C(=O)CNCCCCN)[C@@H](C)c1ccccc1)[C@@H](C)c1ccccc1)[C@@H](C)c1ccccc1)[C@@H](C)c1ccccc1)[C@@H](C)c1ccccc1)[C@@H](C)c1ccccc1 [1-Pro9] (H-[Nlys][Nspe][Nspe][Nlys][Nspe][Nspe][Nlys][Nspe]P[Nlys][Nspe][Nspe]-NH2) : reported MIC Proteus mirabilis ATCC 35659 = >72.9 µM

Record summary for C[C@@H](c1ccccc1)N(CC(N)=O)C(=O)CN(C(=O)CN(CCCCN)C(=O)CN(C(=O)CN(C(=O)CN(CCCCN)C(=O)[C@@H]1CCCN1C(=O)CN(C(=O)CN(CCCCN)C(=O)CN(C(=O)CN(C(=O)CNCCCCN)[C@@H](C)c1ccccc1)[C@@H](C)c1ccccc1)[C@@H](C)c1ccccc1)[C@@H](C)c1ccccc1)[C@@H](C)c1ccccc1)[C@@H](C)c1ccccc1 [1-Pro6] (H-[Nlys][Nspe][Nspe][Nlys][Nspe]P[Nlys][Nspe][Nspe][Nlys][Nspe][Nspe]-NH2) : reported MIC Proteus mirabilis ATCC 35659 = >72.9 µM

Source of measurements: patent US20100036088A1
